- Test system: Pseudomonas aeruginosa PAO1
- Construct: PAO1
- ASSAY REMARKS: microbe, parasite or virus in culture
- Parameters: broth microdilution MIC in cation-adjusted Mueller-Hinton broth, visual growth or resazurin
- CONDITION INFO: PAO1, 20 h, read-out: MIC PAO1
Reported MIC values for the following molecules.
Answer with a number only, understood to be in µg/mL.

A selection of reference data follows.
C[C@H]1COc2c(N3CCN(C)CC3)c(F)cc3c(=O)c(C(=O)O)cn1c23
4
CCN1CCN(C(=O)N[C@@H](C(=O)N[C@@H]2C(=O)N3[C@@H]2SC(C)(C)[C@@H]3C(=O)O)c2ccccc2)C(=O)C1=O
2

MIC of CN(C)c1ccc(O)c2c1C[C@H]1C[C@H]3[C@H](N(C)C)C(O)=C(C(N)=O)C(=O)[C@@]3(O)C(O)=C1C2=O on Pseudomonas aeruginosa PAO1?
32

Same thing, different molecule: NCC[C@H](O)C(=O)N[C@@H]1C[C@H](N)[C@@H](O[C@H]2O[C@H](CN)[C@@H](O)[C@H](O)[C@H]2O)[C@H](O)[C@H]1O[C@H]1O[C@H](CO)[C@@H](O)[C@H](N)[C@H]1O
2
